# system_tested: trypsin (Bos taurus)
# experiment_summary: Inhibition of trypsin hydrolysis of TAME (p-tosylarginine methyl ester), in vitro
# Type: biochemical
# condition_summary: TAME substrate, 1.5 μg of trypsin, 37° C., 10 minutes; read-out: 50% inhibitory concentration, substrate TAME
Where a name gives a salt, the structure may show the parent alone.
outcome_measure: IC50 (nM)

| compound | readout_value |
| --- | --- |
| CCOC(=O)c1ccc(OC(=O)CCCCCNC(=N)N)cc1 [Gabexate mesylate, methanesulfonate, reference compound] | 15000 |
| CCOC(=O)c1nccc2c(OC(=O)c3ccc(NC(=N)N)cc3)cccc12 [Compound No. 7, hydrochloride] | 56 |
| CN(C)C(=O)COC(=O)Cc1ccc(OC(=O)c2ccc(NC(=N)N)cc2)cc1 [Camostat mesylate, methanesulfonate, reference compound] | 65 |
| CN(C)C(=O)COC(=O)c1nccc2c(OC(=O)c3ccc(NC(=N)N)cc3)cccc12 [Compound No. 12, hydrochloride] | 66 |
| N=C(N)Nc1ccc(C(=O)Oc2cccc3c(O)nccc23)cc1 | 64 |

1: N#Cc1nccc2c(OC(=O)c3ccc(NC(=N)N)cc3)cccc12 [Compound No. 3, methanesulfonate monohydrate]
2: CC(C)OC(=O)c1nccc2c(OC(=O)c3ccc(NC(=N)N)cc3)cccc12 [Compound No. 9, hydrochloride]
Qu. Hi, I'm comparing 1 with 2 and wondering which one has the bigger number for IC50. Any idea? Your answer should be the label of the entry you select.
Ans. 2

###

# system_tested: trypsin (Bos taurus)
# Sequence (P00760 24-246): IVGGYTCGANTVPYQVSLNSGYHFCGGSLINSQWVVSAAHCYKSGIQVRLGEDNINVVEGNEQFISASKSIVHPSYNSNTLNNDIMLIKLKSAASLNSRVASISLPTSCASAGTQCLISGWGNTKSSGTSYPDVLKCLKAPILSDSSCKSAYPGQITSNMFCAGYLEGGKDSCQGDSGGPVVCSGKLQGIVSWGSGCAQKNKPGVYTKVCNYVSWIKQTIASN
# experiment_summary: Inhibition of trypsin hydrolysis of TAME (p-tosylarginine methyl ester), in vitro
# Type: biochemical
# condition_summary: TAME substrate, 1.5 μg of trypsin, 37° C., 10 minutes; read-out: 50% inhibitory concentration, substrate TAME
Structures can show the parent of a compound that is named as a salt.
outcome_measure: IC50 (nM)

| compound | IC50 / nM |
| --- | --- |
| N=C(N)Nc1ccc(C(=O)Oc2cccc3cnccc23)cc1 [Compound No. 1, dimethanesulfonate monohydrate] | 56 |
| N=C(N)Nc1ccc(C(=O)Oc2cccc3c(C(N)=O)nccc23)cc1 [Compound No. 6, methanesulfonate hemihydrate] | 56 |
| CC(=O)c1nccc2c(OC(=O)c3ccc(NC(=N)N)cc3)cccc12 [Compound No. 4, hydrochloride] | 57 |

P: CCCOC(=O)c1nccc2c(OC(=O)c3ccc(NC(=N)N)cc3)cccc12
Q: N=C(N)Nc1ccc(C(=O)Oc2cccc3c(C(=O)O)nccc23)cc1
R: CCCCOC(=O)c1nccc2c(OC(=O)c3ccc(NC(=N)N)cc3)cccc12 [Compound No. 10, hydrochloride monohydrate]
S: N=C(N)Nc1ccc(C(=O)Oc2cccc3c(C(=O)OCc4ccccc4)nccc23)cc1 [Compound No. 11, hydrochloride monohydrate]
Qu. Ranking field: IC50; order: falling. Quick reminder: the answer is the labels in the order asked.
Ans. S, R, P, Q
(S: 340 nM, R: 150 nM, P: 96 nM, Q: 64 nM)

###

# system_tested: trypsin (Bos taurus)
# Sequence (P00760 24-246): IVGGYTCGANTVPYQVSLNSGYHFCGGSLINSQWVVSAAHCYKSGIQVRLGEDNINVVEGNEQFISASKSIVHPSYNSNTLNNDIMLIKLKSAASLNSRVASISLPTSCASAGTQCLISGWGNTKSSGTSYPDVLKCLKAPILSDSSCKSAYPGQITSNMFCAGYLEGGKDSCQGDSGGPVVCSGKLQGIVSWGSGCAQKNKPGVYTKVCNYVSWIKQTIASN
# experiment_summary: Inhibition of trypsin hydrolysis of casein, in vitro
# Type: biochemical
# condition_summary: casein substrate, 20 μg of trypsin, 37° C., 10 minutes; read-out: 50% inhibitory concentration, substrate casein
pIC50: −log10 of the molar value. Where a name gives a salt, the structure may show the parent alone.
outcome_measure: pIC50

Solved entries:
| compound | pIC50 |
| --- | --- |
| CC(=O)c1nccc2c(OC(=O)c3ccc(NC(=N)N)cc3)cccc12 [Compound No. 4, hydrochloride] | 6.85 |
| CN(C)C(=O)COC(=O)c1nccc2c(OC(=O)c3ccc(NC(=N)N)cc3)cccc12 [Compound No. 12, hydrochloride] | 6.85 |

P: N=C(N)Nc1ccc(C(=O)Oc2cccc3c(O)nccc23)cc1 [Compound No. 2]
Q: CCOC(=O)c1ccc(OC(=O)CCCCCNC(=N)N)cc1 [Gabexate mesylate, methanesulfonate, reference compound]
Qu. Hi, I'm comparing P with Q and wondering which one has the bigger number for pIC50. Any idea? Your answer should be the label of the entry you select.
Ans. P

###

# system_tested: trypsin (Bos taurus, UniProt P00760)
# Sequence (P00760 24-246): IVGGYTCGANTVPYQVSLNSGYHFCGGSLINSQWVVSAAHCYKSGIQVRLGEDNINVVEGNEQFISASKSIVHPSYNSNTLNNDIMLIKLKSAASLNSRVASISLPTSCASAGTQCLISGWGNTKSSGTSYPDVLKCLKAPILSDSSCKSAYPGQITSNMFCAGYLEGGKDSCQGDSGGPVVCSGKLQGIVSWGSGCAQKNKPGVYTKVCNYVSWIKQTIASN
# experiment_summary: Inhibition of trypsin hydrolysis of casein, in vitro
# Assay type: biochemical
# condition_summary: casein substrate, 20 μg of trypsin, 37° C., 10 minutes; read-out: 50% inhibitory concentration, substrate casein
Counter-ions that a name gives are not always drawn.
outcome_measure: IC50 (nM)

Solved entries:
| compound | system_tested | IC50 [nM] |
| --- | --- | --- |
| CCCCOC(=O)c1nccc2c(OC(=O)c3ccc(NC(=N)N)cc3)cccc12 [Compound No. 10, hydrochloride monohydrate] | trypsin (Bos taurus, UniProt P00760) | 210 |
| CN(C)C(=O)COC(=O)Cc1ccc(OC(=O)c2ccc(NC(=N)N)cc2)cc1 [Camostat mesylate, methanesulfonate, reference compound] | trypsin (Bos taurus, UniProt P00760) | 140 |
| CCCOC(=O)c1nccc2c(OC(=O)c3ccc(NC(=N)N)cc3)cccc12 | trypsin (Bos taurus, UniProt P00760) | 160 |
| N=C(N)Nc1ccc(C(=O)Oc2cccc3c(C(N)=O)nccc23)cc1 [Compound No. 6, methanesulfonate hemihydrate] | trypsin (Bos taurus, UniProt P00760) | 160 |
| N#Cc1nccc2c(OC(=O)c3ccc(NC(=N)N)cc3)cccc12 [Compound No. 3, methanesulfonate monohydrate] | trypsin (Bos taurus, UniProt P00760) | 140 |

1: CCOC(=O)c1nccc2c(OC(=O)c3ccc(NC(=N)N)cc3)cccc12 [Compound No. 7, hydrochloride]
2: N=C(N)Nc1ccc(C(=O)Oc2cccc3c(C(=O)OCc4ccccc4)nccc23)cc1 [Compound No. 11, hydrochloride monohydrate]
Qu. Decide: 1 or 2 , by lowest recorded IC50. Your answer should be the label of the entry you select.
Ans. 1

###

# system_tested: trypsin (Bos taurus, UniProt P00760)
# experiment_summary: Inhibition of trypsin hydrolysis of casein, in vitro
# Assay type: biochemical
# condition_summary: casein substrate, 20 μg of trypsin, 37° C., 10 minutes; read-out: 50% inhibitory concentration, substrate casein
pIC50: −log10 of the molar value. Counter-ions that a name gives are not always drawn.
outcome_measure: pIC50

| molecule | readout_value |
| --- | --- |
| N=C(N)Nc1ccc(C(=O)Oc2cccc3c(C(=O)O)nccc23)cc1 [Compound No. 5] | 6.77 |
| N=C(N)Nc1ccc(C(=O)Oc2cccc3cnccc23)cc1 [Compound No. 1, dimethanesulfonate monohydrate] | 6.89 |
| CC(C)OC(=O)c1nccc2c(OC(=O)c3ccc(NC(=N)N)cc3)cccc12 [Compound No. 9, hydrochloride] | 6.80 |
